- Tested on: U-2932
- assay-procedure: growth inhibition by drug alone (1 - RLU/untreated control) (fraction); higher = stronger inhibition
- condition-details: 1000 nM; time (day): 6; 177Lu-lilotomab satetraxetan 0 ug/ml
experimental-endpoint: growth inhibition by drug alone
Answer with a bare number; do not write a unit.

O=C(Oc1ccc([N+](=O)[O-])cc1)N1CCC(C(O)(c2ccc3c(c2)OCO3)c2ccc3c(c2)OCO3)CC1    -0.0568
CC(C)[C@]12O[C@H]1[C@@H]1O[C@]13[C@]1(O[C@H]1C[C@H]1C4=C(CC[C@@]13C)C(=O)OC4)[C@@H]2O [Triptolide]    0.982
Cc1cc2c(C(C)C)c(O)c(O)c(C=O)c2c(O)c1-c1c(C)cc2c(C(C)C)c(O)c(O)c(C=O)c2c1O [Gossypol]    0.0148
CCC1(c2ccc(N)cc2)CCC(=O)NC1=O (stereo not given) [Aminoglutethimide (Cytadren)]    -0.122

Moving on to the next compound.
Query: Any idea what growth inhibition by drug alone was measured for N.N.[Cl][Pt][Cl] [Cisplatin] ?
Response: 0.0312
